Here, each record is paired with measured activation at 10 µM data.
Target: CFTR (Homo sapiens, UniProt P13569, DEL508-508)
Construct: endogenous in cells; host or cells: primary human bronchial epithelial cells from CF subjects (F508del/MF-HBE), differentiated at air-liquid interface
Sequence (P13569 with tags, fused parts or gaps DEL508-508): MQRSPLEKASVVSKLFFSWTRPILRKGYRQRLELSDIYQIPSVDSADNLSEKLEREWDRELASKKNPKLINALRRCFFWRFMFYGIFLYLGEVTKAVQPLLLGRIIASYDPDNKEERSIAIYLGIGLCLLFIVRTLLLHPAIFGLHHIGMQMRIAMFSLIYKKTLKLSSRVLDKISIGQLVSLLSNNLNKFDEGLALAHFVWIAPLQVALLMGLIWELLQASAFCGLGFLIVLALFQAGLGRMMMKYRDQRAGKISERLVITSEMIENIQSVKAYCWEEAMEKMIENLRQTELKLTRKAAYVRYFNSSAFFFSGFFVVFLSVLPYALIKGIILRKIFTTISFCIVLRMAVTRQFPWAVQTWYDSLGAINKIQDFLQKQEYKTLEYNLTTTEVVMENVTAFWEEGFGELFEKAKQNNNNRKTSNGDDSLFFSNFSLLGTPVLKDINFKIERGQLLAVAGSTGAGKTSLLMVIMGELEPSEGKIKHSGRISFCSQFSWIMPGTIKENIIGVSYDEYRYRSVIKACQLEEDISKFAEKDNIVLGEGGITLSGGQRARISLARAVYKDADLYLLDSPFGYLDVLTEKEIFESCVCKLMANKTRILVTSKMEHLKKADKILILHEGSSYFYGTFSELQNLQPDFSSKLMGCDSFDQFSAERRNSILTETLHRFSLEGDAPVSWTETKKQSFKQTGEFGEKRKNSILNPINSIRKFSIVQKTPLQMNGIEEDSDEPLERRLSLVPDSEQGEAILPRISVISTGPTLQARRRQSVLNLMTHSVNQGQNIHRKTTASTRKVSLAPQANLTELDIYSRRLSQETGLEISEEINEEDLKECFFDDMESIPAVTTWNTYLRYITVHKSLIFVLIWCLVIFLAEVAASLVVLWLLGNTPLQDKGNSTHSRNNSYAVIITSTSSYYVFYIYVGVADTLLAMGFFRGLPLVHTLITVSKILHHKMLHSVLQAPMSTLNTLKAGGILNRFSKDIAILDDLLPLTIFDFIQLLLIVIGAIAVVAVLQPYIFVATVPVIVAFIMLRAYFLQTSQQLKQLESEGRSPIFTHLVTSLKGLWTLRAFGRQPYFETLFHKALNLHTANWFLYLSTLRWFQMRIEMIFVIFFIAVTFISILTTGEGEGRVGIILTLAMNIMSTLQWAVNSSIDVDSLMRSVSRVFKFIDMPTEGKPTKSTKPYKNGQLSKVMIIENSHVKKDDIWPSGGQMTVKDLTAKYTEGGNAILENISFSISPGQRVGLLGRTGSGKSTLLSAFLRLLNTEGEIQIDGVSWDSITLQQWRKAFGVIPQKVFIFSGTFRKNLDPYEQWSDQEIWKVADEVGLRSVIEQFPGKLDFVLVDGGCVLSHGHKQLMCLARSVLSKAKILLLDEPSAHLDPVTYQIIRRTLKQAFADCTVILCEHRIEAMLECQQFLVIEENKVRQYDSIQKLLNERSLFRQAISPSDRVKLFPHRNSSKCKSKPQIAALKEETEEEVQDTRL
Assay: HBE assay: Ussing chamber assay of CFTR-mediated short-circuit currents
Type: cell-based
Conditions: Table 13; at 10 μM; read-out: HBE Activity at 10 μM (%)

INSERT INTO results (molecule, target_or_test_system, measured_parameter, data_value) VALUES
  ('Cc1cccc(C)c1-c1cc2nc(n1)NS(=O)(=O)c1cccc(c1)C(=O)N(CC(=O)NC1CCCCC1)[C@H](CC(C)(C)C)CO2 [Compound 205]', 'CFTR (Homo sapiens, UniProt P13569, DEL508-508)', 'activation at 10 µM', '> 600%');

Recorded activation at 10 µM for Cc1cccc(C)c1-c1cc2nc(n1)NS(=O)(=O)c1cccc(c1)C(=O)N(Cc1cccc(N3CCC[C@H]3C#N)n1)[C@H](CC(C)(C)C)CO2 [Compound 534] with CFTR (Homo sapiens, UniProt P13569, DEL508-508), please?
> 600%

Recorded activation at 10 µM for Cc1cccc(C)c1-c1cc2nc(n1)NS(=O)(=O)c1cccc(c1)C(=O)N(Cc1cc(NC(C)C)ccn1)[C@H](CC(C)(C)C)CO2 [Compound 995] with CFTR (Homo sapiens, UniProt P13569, DEL508-508), please?
> 600%
